biological target: HiBit-BRG1 fusion protein in stable HeLa cell line expressing HiBit-BRG1 and LgBit (Homo sapiens); construct: expressed in transfected cells; assay: HiBiT-BRG1 cell-based degradation assay (Nano-Glo HiBiT, 24 h); conditions: HeLa HiBit-BRG1/LgBit cells, top dose 30 μM, read-out: BRG1 HiBit Degradation Maximum (%)
Sequence (P51532 whole entry, the tested form may be a part): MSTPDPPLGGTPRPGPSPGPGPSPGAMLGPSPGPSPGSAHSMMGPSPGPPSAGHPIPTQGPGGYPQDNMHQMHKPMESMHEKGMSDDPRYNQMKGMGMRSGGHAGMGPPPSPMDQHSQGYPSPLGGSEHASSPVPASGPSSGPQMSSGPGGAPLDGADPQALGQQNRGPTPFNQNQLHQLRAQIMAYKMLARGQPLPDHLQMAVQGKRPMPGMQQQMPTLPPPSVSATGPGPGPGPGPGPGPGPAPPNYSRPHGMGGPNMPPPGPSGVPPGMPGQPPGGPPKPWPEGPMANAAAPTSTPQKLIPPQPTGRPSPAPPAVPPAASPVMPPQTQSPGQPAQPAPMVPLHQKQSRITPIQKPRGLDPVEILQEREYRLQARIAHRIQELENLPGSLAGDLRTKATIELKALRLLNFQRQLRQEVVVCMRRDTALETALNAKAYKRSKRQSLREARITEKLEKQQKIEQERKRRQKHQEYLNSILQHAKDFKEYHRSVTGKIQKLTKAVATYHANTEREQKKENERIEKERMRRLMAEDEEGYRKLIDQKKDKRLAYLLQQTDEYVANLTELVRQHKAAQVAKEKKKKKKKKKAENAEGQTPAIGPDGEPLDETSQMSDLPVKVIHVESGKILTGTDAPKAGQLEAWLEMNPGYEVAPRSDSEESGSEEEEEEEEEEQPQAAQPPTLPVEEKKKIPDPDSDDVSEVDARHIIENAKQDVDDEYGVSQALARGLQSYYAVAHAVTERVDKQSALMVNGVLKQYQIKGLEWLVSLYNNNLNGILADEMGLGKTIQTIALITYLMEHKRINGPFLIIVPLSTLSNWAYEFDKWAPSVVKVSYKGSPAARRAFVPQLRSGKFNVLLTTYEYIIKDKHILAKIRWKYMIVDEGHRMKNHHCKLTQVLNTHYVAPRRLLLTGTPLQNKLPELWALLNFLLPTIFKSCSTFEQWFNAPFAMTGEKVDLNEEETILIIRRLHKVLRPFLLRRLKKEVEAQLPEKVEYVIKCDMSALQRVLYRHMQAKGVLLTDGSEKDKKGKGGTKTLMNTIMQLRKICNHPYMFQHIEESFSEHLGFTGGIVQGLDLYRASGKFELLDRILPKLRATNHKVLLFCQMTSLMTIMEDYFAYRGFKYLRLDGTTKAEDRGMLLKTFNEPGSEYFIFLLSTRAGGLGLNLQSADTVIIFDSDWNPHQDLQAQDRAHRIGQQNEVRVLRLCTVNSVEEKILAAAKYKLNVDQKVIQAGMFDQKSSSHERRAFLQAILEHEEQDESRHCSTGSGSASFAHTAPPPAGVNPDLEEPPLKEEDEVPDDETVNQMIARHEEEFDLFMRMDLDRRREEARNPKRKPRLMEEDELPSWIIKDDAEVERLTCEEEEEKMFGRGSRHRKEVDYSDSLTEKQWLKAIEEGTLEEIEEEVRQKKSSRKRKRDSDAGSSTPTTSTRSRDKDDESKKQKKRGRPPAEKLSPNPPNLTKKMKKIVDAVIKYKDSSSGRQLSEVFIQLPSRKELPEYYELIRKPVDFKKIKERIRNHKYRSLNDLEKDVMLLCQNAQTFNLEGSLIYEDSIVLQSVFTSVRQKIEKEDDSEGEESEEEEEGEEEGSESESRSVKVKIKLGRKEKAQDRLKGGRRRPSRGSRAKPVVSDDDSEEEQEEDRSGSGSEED
attribute.measured: Dmax

molecule | value
Cc1ncsc1-c1ccc([C@H](C)NC(=O)[C@@H]2C[C@@H](O)CN2C(=O)C(c2cc(N3CC4(CN(c5cc(C(F)F)c6cc(-c7ccccc7O)nnc6c5)C4)C3)no2)C(C)C)cc1 (some centres unmarked) | < 50%

Please state, for each entry, its recorded Dmax.
1. Cc1ncsc1-c1ccc([C@H](C)NC(=O)[C@@H]2C[C@@H](O)CN2C(=O)[C@H](C(C)C)n2cc(-c3ccc4nnc(-c5ccccc5O)cc4c3C)nn2)cc1
2. Cc1ncsc1-c1ccc([C@H](C)NC(=O)[C@@H]2C[C@@H](O)CN2C(=O)C(C(C)C)n2cc(N3CCC4(CCN4c4ccc5nnc(-c6ccccc6O)cc5c4)C3)nn2)cc1 (some centres unmarked)
3. Cc1ncsc1-c1ccc([C@H](C)NC(=O)[C@@H]2C[C@@H](O)CN2C(=O)[C@@H](c2cc(N3CC4(CN(c5cc(C#N)c6cc(-c7ccccc7O)nnc6c5)C4)C3)no2)C(C)C)cc1

< 50%
< 50%
< 50%

Dmax in this record for Cc1ncsc1-c1ccc([C@H](C)NC(=O)[C@@H]2C[C@@H](O)CN2C(=O)[C@@H](c2cc(N3CCC4(CN(c5ccc6cc(-c7ccccc7O)nnc6c5)C4)C3)no2)C(C)C)cc1 : > 75%
